- Test system: Triton WR-1339-induced hyperlipidemia in rat
- assay summary: antilipotropic effect in Triton WR-1339-induced hyperlipidemia in rat
- Type: in vivo, Wistar-strain male rats
- setup conditions: 24 hours after Triton WR-1339 (400 mg/kg, tail vein), 50 mg/kg oral, vs control, read-out: lowering ratio of serum triglycerides, 24 hours after Triton WR-1339
Binary call on inhibition in vivo at 50 mg/kg: Condition met from 30% upward, Condition not met beneath that.

Recorded results for 4 molecules are shown here.
[[record]]
molecule = "CC(C)OP(=O)(Cc1ccc(C(=O)NCCc2ccccc2)cc1)OC(C)C [compound 11]"
classification = "Condition not met"

[[record]]
molecule = "CCOP(=O)(Cc1ccc(C(=O)N(Cc2ccccc2)c2ccc(C(F)(F)F)cc2)cc1)OCC [compound 12]"
classification = "Condition met"

[[record]]
molecule = "CCOP(=O)(Cc1ccc(C(=O)Nc2ccc([N+](=O)[O-])cc2)cc1)OCC [compound 18]"
classification = "Condition met"

[[record]]
molecule = "CCOP(=O)(Cc1ccc(C(=O)Nc2ccc(OC)cc2)cc1)OCC [compound 23]"
classification = "Condition not met"


Now examine the next entry.
Answer whether inhibition in vivo at 50 mg/kg of CCOP(=O)(Cc1ccc(C(=O)N(Cc2ccccc2)c2ccc([N+](=O)[O-])cc2)cc1)OCC [compound 10] is greater than or equal to 30%.
Condition not met
